Consider the following binders; for each one, report its EC50.
tested-on: T1, human CD19 on CD19(+) NALM6 acute lymphoid leukemia cells (UniProt P15391 20-556)
T1 chain: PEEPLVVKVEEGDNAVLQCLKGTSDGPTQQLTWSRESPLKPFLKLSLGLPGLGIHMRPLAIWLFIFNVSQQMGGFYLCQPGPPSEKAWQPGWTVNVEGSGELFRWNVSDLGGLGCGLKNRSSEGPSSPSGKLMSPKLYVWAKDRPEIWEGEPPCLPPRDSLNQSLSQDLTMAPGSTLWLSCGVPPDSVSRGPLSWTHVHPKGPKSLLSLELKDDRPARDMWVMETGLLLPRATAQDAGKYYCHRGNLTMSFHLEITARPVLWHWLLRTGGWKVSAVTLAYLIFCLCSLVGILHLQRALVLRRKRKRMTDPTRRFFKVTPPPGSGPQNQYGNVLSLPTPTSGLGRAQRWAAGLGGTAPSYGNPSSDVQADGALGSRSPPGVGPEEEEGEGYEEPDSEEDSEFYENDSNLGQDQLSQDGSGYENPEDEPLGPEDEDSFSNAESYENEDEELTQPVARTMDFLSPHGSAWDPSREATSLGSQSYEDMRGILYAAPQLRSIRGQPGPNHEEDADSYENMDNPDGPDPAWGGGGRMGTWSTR
assay-info: FACS
One number for each entry, in µg/mL.

Some solved cases for reference:
{"binder": "L3+H1b (antibody, V domains shown) VH: QVQLQESGPGLVKPSETLSVTCTVSGVSLPDYGVSWIRQPPGKGLEWIGVIWGSETTYYNPSLKSRVTISVDTSKNQVSLKLSSVTAADTAVYYCAKHYYYGGSYAMDYWGQGTSVTVSS VL: DIQMTQSTSSLSASVGDRVTITCRASQDISKYLNWYQQKPGKAVKLLIYHTSRLHSGVPSRFSGSGSGTDYTFTISSLQPEDIATYYCQQGNTLPYTFGGGTKLEIT", "EC50, µg/mL": 0.19}
{"binder": "L2+H7b (antibody, V domains shown) VH: QVQLQESGPGLVKPSETLSLTCTVSGVSLPDYGVSWIRQPPGKGLEWIGVIWGSETTYYNPSLKSRVTISKDTSKSQFSLKMSSVTAADTAVYYCAKHYYYGGSYAMDYWGQGTSVTVSS VL: DIQMTQSPSSLSASVGDRVTITCQASQDISKYLNWYQQKPGKAVKLLIYHTSRLHSGVPSRFSGSGSGTDYTLTISSLQPEDIATYFCQQGNTLPYTFGGGTKLEIT", "EC50, µg/mL": 0.06}

Give EC50 for all binders that follow.
1. L1+H6b (antibody, V domains shown) VH: QVQLQESGPGLVKPSETLSLTCTVSGVSLPDYGVSWIRQPPGKGLEWLGVIWGSETTYYNPSLKSRVTISVDNSKNQFSLKLSSVTAADTAVYYCAKHYYYGGSYAMDYWGQGTSVTVSS VL: DIQMTQSPSSLSASVGDRVTITCRASQDISKYLNWYQQKPGKAVKLLIYHTSRLHTGVPSRFSGSGSGTDYTLTISSLQPEDIATYFCQQGNTLPYTFGGGTKLEIT
2. L2+H5b (antibody, V domains shown) VH: QVQLQESGPGLVKPSETLSLTCTVSGVSLPDYGVSWIRQPPGKGLEWIGVIWGSETTNYNPSLKSRVTISKDTSKSQVSLKLSSVTAADTAVYYCAKHYYYGGSYAMDYWGQGTSVTVSS VL: DIQMTQSPSSLSASVGDRVTITCQASQDISKYLNWYQQKPGKAVKLLIYHTSRLHSGVPSRFSGSGSGTDYTLTISSLQPEDIATYFCQQGNTLPYTFGGGTKLEIT
3. L3+H5b (antibody, V domains shown) VH: QVQLQESGPGLVKPSETLSLTCTVSGVSLPDYGVSWIRQPPGKGLEWIGVIWGSETTNYNPSLKSRVTISKDTSKSQVSLKLSSVTAADTAVYYCAKHYYYGGSYAMDYWGQGTSVTVSS VL: DIQMTQSTSSLSASVGDRVTITCRASQDISKYLNWYQQKPGKAVKLLIYHTSRLHSGVPSRFSGSGSGTDYTFTISSLQPEDIATYYCQQGNTLPYTFGGGTKLEIT
4. L3+H4 (antibody, V domains shown) VH: QVQLQESGPGLVKPSETLSLTCTVSGVSLPDYGVSWIRQPPGKGLEWIGVIWGSETTNYNPSLKSRVTISVDNSKNQFSLKLSSLTAADTAVYYCAKHYYYGGSYAMDYWGQGTSVTVSS VL: DIQMTQSTSSLSASVGDRVTITCRASQDISKYLNWYQQKPGKAVKLLIYHTSRLHSGVPSRFSGSGSGTDYTFTISSLQPEDIATYYCQQGNTLPYTFGGGTKLEIT

1. 0.08
2. 0.19
3. 0.28
4. 0.42

Give EC50 for all binders that follow.
1. L1+H5b (antibody, V domains shown) VH: QVQLQESGPGLVKPSETLSLTCTVSGVSLPDYGVSWIRQPPGKGLEWIGVIWGSETTNYNPSLKSRVTISKDTSKSQVSLKLSSVTAADTAVYYCAKHYYYGGSYAMDYWGQGTSVTVSS VL: DIQMTQSPSSLSASVGDRVTITCRASQDISKYLNWYQQKPGKAVKLLIYHTSRLHTGVPSRFSGSGSGTDYTLTISSLQPEDIATYFCQQGNTLPYTFGGGTKLEIT
2. L3+H8b (antibody, V domains shown) VH: QVQLQESGPGLVKPSETLSVTCTVSGVSLPDYGVSWIRQPPGKGLEWIGVIWGSETTYYNPSLKSRLTISKDTSKNQFSLKLSSVTAADTAVYYCAKHYYYGGSYAMDYWGQGTSVTVSS VL: DIQMTQSTSSLSASVGDRVTITCRASQDISKYLNWYQQKPGKAVKLLIYHTSRLHSGVPSRFSGSGSGTDYTFTISSLQPEDIATYYCQQGNTLPYTFGGGTKLEIT
3. L3+H6b (antibody, V domains shown) VH: QVQLQESGPGLVKPSETLSLTCTVSGVSLPDYGVSWIRQPPGKGLEWLGVIWGSETTYYNPSLKSRVTISVDNSKNQFSLKLSSVTAADTAVYYCAKHYYYGGSYAMDYWGQGTSVTVSS VL: DIQMTQSTSSLSASVGDRVTITCRASQDISKYLNWYQQKPGKAVKLLIYHTSRLHSGVPSRFSGSGSGTDYTFTISSLQPEDIATYYCQQGNTLPYTFGGGTKLEIT
4. L1+H7b (antibody, V domains shown) VH: QVQLQESGPGLVKPSETLSLTCTVSGVSLPDYGVSWIRQPPGKGLEWIGVIWGSETTYYNPSLKSRVTISKDTSKSQFSLKMSSVTAADTAVYYCAKHYYYGGSYAMDYWGQGTSVTVSS VL: DIQMTQSPSSLSASVGDRVTITCRASQDISKYLNWYQQKPGKAVKLLIYHTSRLHTGVPSRFSGSGSGTDYTLTISSLQPEDIATYFCQQGNTLPYTFGGGTKLEIT

1: 0.18; 2: 0.19; 3: 0.13; 4: 0.07

Data provenance is patent US20220177579A1.
